# experimentNotes: in vitro
# assayContext: African green monkey
attributeMeasured: CC50

input: // query CC50 value for entry "COC(=O)CCCCCOc1cc(O)c2c(=O)c(O)c(-c3cc(O)c(O)c(O)c3)oc2c1"
output: > 100 µM

input: // query CC50 value for entry "COC(=O)COc1cc(O)c2c(=O)c(O)c(-c3cc(O)c(O)c(O)c3)oc2c1"
output: > 100 µM

---

# targetOrSystem: SARS-CoV-2 3CL^pro (Severe acute respiratory syndrome coronavirus 2, UniProt P0DTD1)
# experimentNotes: SARS-CoV-2 3CLpro FRET activity assay (Beyotime inhibitor screening kit)
# assayContext: FRET assay; averages of three independent experiments
Assign IC50 to each entry below.
Note: unit nM is implicit; provide only the numeric part.

input: // query IC50 value for entry COC(=O)CCCOc1cc(O)c2c(=O)c(O)c(-c3cc(O)c(O)c(O)c3)oc2c1 [Compound 4]
output: 1260

input: // query IC50 value for entry COC(=O)CCCCCOc1cc(O)c2c(=O)c(O)c(-c3cc(O)c(O)c(O)c3)oc2c1 [Compound 5]
output: 1690

input: // query IC50 value for entry CCOC(=O)CCCCCCOc1cc(O)c2c(=O)c(O)c(-c3cc(O)c(O)c(O)c3)oc2c1 [Compound 9]
output: 1680

input: // query IC50 value for entry CCOC(=O)CCCCCOc1cc(O)c2c(=O)c(O)c(-c3cc(O)c(O)c(O)c3)oc2c1 [Compound 8]
output: 1730
